biological target: Cytochrome P450 3A4 (Homo sapiens, UniProt P08684);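 note: CYP3A4 tested as one member of a cytochrome P450 panel screen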
Sequence (P08684 whole entry): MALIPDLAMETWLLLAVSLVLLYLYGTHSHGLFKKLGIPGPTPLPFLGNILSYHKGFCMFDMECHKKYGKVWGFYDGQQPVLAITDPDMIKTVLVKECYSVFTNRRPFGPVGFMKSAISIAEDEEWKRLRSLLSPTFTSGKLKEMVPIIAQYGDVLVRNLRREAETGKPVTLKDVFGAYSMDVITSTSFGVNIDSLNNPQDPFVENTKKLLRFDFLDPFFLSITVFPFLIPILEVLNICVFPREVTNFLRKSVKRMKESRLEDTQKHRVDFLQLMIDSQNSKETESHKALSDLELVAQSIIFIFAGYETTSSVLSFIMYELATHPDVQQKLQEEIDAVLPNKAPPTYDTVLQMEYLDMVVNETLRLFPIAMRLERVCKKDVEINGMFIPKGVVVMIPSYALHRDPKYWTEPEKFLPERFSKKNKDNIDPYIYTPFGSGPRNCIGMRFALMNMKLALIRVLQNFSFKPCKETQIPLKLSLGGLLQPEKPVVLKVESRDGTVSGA
Measurement Type: AC50

1. N#Cc1cccc(NC(=O)N2CC3(CCN(C(=O)Oc4ccccc4)CC3)C2)c1 ... inconclusive
2. CC(C)CN(CC(C)C)C1=N/C(=C\c2ccco2)C(=O)N1c1ccccc1 ... inconclusive
3. C/C(NCCN1CCOCC1)=C1/C(=O)NC(=O)N(Cc2ccccc2)C1=O ... inconclusive
4. COC(=O)N1CCC2(CC1)CN(C(c1ccccc1)c1ccccc1)C2 ... inconclusive

* * *

Catalogue of compounds with associated IC50
biological target: Rac GTPase-activating protein 1 (Homo sapiens, UniProt Q9H0H5); experiment: MgcRacGAP GTPase-activating activity inhibitors, confirmation, biochemical, ADP Hunter fluorescence, primary and confirmatory (AID 624330); assay type: functional
Sequence (Q9H0H5 whole entry): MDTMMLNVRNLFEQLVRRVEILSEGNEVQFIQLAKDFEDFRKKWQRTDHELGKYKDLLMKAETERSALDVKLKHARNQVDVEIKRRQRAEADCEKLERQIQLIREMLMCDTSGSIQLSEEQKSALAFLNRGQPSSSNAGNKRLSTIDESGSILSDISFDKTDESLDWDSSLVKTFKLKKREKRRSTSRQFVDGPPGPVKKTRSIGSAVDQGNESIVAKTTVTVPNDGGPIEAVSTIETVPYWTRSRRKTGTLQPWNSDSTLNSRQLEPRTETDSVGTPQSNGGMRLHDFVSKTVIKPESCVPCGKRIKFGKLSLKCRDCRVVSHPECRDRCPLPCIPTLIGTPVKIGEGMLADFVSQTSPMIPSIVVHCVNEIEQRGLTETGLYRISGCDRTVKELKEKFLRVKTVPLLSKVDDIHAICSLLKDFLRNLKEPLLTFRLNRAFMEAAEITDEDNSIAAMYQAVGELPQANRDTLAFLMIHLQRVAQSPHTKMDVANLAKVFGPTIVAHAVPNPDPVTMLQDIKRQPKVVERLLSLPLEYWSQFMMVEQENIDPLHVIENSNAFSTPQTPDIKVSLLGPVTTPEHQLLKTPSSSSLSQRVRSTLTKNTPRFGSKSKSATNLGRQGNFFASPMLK
Activity calls are given as the source filed them.

Example results:
1. O=c1c2ccccc2sn1-c1ccccc1F ... 41 µM (active)
2. Cc1cc(Oc2ccc(-c3ccccc3)cc2)n2ncnc2n1 ... 22.7 µM (active)
3. Oc1ccc(N2CCN(C(c3cccs3)c3nnnn3CCc3ccccc3)CC2)cc1 (stereo not drawn) ... 47.3 µM (active)

Problem: Query (compound): `CC(=O)c1ccc2c(c1)Nc1ccccc1S2` ; field requested: IC50
Solution: 31.6 µM (active)

Problem: Input `COc1ccc(C(=O)N2CCN(CCCc3ccccc3)CC2)cc1OC`
Solution: 123 µM (active)

* * *

biological target: Carboxy-terminal domain RNA polymerase II polypeptide A small phosphatase 1 (Homo sapiens); assay: inhibitors of CTDSP1, concentration-response testing, biochemical assay, absorbance-based, actives from ultra-high-throughput screening (AID 540297); format: functional
Sequence (Q9GZU7 whole entry, the tested form may be a part): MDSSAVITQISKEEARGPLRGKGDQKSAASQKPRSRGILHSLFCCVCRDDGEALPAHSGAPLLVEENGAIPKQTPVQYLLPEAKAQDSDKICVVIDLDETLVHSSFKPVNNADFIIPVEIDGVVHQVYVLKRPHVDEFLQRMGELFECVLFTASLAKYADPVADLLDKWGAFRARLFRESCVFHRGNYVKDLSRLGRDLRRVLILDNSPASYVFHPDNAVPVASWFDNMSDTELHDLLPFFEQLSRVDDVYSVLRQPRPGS
The source made the active and inactive calls.
Catalogue of molecules with associated IC50

Example results:
1. C#CCSc1nc2sc3c(c2c(=O)n1C)CCC3 ... 6.45 µM (active)
2. O=C(CSc1nnc(-c2ccncc2)n1-c1ccc(F)cc1)NC(=O)NCc1ccco1 ... 8.38 µM (active)

Problem: Give Carboxy-terminal domain RNA polymerase II polypeptide A small phosphatase 1 (Homo sapiens) IC50 for `N=C1/C(=C/c2ccc(-c3cccc(C(=O)O)c3)o2)C(=O)N=C2SC(CC(=O)N3CCOCC3)=NN12`
Solution: 3.21 µM (active)

Problem: Input `O=C(Nc1cccc([N+](=O)[O-])c1)Nc1cccc([N+](=O)[O-])c1`
Solution: 8.46 µM (active)

Problem: Input `O=C(CCS(=O)(=O)c1ccc(Br)cc1)NC1CCCCCC1`
Solution: 7.42 µM (active)

Problem: Input CCCC(NC(=O)Cc1c(C)c2cc3c(C)c(C)oc3c(C)c2oc1=O)C(=O)N[C@@H](Cc1ccccc1)C(=O)O (stereo partly specified)
Solution: 3.57 µM (active)

* * *

biological target: Kappa-type opioid receptor (Homo sapiens, UniProt P41145); type: functional
Sequence (P41145 whole entry): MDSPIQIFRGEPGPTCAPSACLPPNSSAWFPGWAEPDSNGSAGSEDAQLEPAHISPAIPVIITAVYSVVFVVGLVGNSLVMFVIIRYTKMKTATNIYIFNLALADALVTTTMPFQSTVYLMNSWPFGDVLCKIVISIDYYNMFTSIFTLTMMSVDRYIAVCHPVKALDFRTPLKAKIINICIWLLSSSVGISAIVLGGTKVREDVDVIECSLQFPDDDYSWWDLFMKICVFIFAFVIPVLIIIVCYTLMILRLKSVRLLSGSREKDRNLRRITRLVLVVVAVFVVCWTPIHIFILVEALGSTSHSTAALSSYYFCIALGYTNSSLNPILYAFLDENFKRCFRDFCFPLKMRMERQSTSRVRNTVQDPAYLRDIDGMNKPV
Measurement Type: EC50

Problem: Query (compound): CCC(C)(C(=O)NC1CCCCC1)N(Cc1cccs1)C(=O)c1ccccn1 (stereo unspecified) ; field requested: EC50
Solution: < 500 nM

* * *

target: Fatty acid synthase (Homo sapiens, UniProt P49327); test: FAS thioesterase domain inhibitors, dose response, biochemical, endpoint fluorescence intensity, uHTS hits (AID 624327); assay type: functional;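 note: fluorescence from hydrolysis of an O-methyl fluorescein acyl ester substrate by the enzyme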
Sequence (P49327 whole entry, the tested form may be a part): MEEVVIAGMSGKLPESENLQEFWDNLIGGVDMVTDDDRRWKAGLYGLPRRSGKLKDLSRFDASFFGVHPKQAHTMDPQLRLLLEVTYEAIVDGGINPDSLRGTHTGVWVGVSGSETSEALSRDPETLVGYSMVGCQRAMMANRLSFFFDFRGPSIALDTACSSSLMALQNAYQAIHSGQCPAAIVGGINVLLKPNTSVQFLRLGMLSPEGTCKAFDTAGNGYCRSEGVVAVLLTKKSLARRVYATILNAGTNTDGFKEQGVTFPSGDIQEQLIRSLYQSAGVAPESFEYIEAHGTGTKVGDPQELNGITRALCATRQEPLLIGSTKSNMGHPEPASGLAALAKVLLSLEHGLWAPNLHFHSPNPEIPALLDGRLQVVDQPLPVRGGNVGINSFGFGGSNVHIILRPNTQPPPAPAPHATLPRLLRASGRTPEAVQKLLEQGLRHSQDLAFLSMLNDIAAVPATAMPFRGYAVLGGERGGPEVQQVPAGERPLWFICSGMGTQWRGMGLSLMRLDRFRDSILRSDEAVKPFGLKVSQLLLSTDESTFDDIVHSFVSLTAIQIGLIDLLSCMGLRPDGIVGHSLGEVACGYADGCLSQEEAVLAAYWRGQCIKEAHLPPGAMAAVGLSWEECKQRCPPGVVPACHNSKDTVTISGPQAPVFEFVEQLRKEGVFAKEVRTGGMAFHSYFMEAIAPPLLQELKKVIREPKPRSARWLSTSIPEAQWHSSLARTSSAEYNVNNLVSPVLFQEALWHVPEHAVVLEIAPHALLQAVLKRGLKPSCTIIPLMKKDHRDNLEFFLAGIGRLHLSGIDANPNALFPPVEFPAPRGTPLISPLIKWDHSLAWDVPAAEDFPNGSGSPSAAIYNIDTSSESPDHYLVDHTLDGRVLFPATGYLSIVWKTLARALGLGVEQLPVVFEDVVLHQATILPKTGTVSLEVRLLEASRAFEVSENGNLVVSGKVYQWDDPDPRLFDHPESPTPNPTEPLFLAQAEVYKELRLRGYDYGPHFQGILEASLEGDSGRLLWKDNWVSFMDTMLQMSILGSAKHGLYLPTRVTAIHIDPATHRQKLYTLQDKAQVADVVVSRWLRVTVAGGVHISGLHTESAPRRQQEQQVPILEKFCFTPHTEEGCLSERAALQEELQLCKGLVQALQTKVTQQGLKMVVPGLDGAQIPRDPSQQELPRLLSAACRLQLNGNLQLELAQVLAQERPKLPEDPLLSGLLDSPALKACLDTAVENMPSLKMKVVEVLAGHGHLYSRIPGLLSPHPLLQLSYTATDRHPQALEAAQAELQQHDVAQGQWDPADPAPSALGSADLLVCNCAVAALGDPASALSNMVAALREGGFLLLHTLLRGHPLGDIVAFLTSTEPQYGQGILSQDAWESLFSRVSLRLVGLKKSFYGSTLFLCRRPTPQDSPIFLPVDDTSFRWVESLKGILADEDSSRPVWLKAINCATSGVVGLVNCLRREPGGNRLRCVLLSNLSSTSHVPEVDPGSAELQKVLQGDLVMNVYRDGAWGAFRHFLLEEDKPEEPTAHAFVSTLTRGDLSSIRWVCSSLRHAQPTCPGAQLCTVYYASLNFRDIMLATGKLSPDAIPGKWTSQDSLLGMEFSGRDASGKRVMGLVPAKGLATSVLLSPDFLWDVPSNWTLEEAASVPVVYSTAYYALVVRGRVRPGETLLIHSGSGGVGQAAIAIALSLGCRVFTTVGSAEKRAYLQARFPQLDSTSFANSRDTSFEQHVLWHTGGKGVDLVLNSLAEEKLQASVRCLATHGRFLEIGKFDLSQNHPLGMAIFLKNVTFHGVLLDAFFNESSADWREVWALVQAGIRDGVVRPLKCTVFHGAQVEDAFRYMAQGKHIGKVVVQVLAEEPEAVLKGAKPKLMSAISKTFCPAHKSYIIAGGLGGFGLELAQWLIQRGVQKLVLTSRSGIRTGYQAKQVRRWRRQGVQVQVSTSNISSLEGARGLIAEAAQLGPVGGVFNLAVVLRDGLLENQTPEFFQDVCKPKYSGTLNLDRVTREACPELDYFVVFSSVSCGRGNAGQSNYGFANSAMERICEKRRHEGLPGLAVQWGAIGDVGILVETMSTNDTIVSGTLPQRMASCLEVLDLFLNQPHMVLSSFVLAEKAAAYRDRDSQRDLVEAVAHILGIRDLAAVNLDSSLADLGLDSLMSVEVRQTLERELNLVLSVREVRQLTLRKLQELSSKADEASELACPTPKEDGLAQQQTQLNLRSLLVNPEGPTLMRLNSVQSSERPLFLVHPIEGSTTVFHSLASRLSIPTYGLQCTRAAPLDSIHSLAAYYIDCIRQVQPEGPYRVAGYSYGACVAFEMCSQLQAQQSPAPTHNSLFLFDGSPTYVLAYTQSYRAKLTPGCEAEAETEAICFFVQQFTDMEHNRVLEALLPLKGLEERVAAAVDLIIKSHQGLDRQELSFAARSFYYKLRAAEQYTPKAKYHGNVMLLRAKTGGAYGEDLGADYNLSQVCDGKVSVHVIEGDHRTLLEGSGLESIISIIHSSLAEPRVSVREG
Activity calls are given as the source filed them.
Catalogue of molecules with associated IC50

Example results:
1) CN(CCO)c1cc(NCCCN2CCC(Cc3ccccc3)CC2)c2nonc2c1[N+](=O)[O-] ... 12.2 µM (active)
2) C/C(=N\Nc1ccc(C(=O)O)cc1)c1ccc2c(c1)Nc1ccccc1S2 ... 11.7 µM (active)
3) C[C@@]12C(=O)Nc3cc(F)ccc3C(=O)N1[C@H]1c3ccccc3OC[C@@H]1[C@@H]2c1ccccc1 ... 18.1 µM (active)

Problem: Query (molecule): `CC1(C)CC(=O)C=C(c2ccc(-c3cnn(Cc4ccccc4)c3)cc2)C1=O` ; field requested: IC50
Solution: 8.34 µM (active)

Problem: Input `Cc1c(C(=O)OCCOc2ccc(Br)cc2)sc(=S)n1C`
Solution: 7.07 µM (active)

Problem: Input `COc1cccc(-n2c(CN3CCN(c4ccccc4)CC3)nc3ccc([N+](=O)[O-])cc3c2=O)c1`
Solution: 4.81 µM (active)

Problem: Input `O=C(Nc1cccc(C(=O)O)c1)/C(=C/c1cccc([N+](=O)[O-])c1)NC(=O)c1cccc(Br)c1`
Solution: 19.4 µM (active)

* * *

biological target: Replicative DNA helicase DnaB (Mycobacterium tuberculosis, UniProt P9WMR3); test: DnaB intein splicing inhibitors, dose response, biochemical, cell-free fluorescence (AID 449749); type: functional
Active and inactive are the calls of the source.
Measurement Type: AC50

Example results:
1. CC(=O)N(C)Cc1ccc(C(=O)CCl)cc1 ... 56.2 µM (active)
2. COC(=O)c1nnc(NC(=O)c2ccc(C(C)(C)C)cc2)[nH]1 ... 3.57 µM (active)
3. CCSC1(SCC)N=C(N)C2(C#N)C(c3ccc(F)cc3)C12C#N (stereo not given) ... 6.54 µM (active)
4. CC(=O)NC1C(=O)N(CCN2CCOCC2)c2ccc(Cl)cc21 (stereo not given) ... 16.6 µM (active)

Problem: Query (compound): CC(CCc1ccccc1)NC(=O)COC(=O)c1ccc(S(C)(=O)=O)c([N+](=O)[O-])c1 (stereo not given) ; field requested: AC50
Solution: 10 µM (active)

Problem: Input `Cc1noc(C)c1COC(=O)Cc1ccc(Br)cc1`
Solution: 124 µM (active)

Problem: Input `CCS(=O)(=O)c1ncc(Cl)c(C(=O)Nc2ccc(S(=O)(=O)N(C)c3ccccc3)cc2)n1`
Solution: 1.14 µM (active)

Problem: Input `CSc1nc(-c2ccccc2)nn1C(=O)c1ccc(Cl)cc1`
Solution: 4.38 µM (active)

Problem: Input `CC(=O)n1cc(N(C(=O)CCl)c2ccc(C)cc2)c2ccccc21`
Solution: 2.53 µM (active)

Problem: Input CCCCCc1cc(=O)oc2c(C(CCN3CCCC(C)C3)c3ccc(N(C)C)cc3)c(OC)cc(OC)c12 (stereo not given)
Solution: 8.48 µM (active)

* * *

assay: inhibitors of SNCA 5'UTR-driven reporter translation, confirmation, H4 neuroglioma cells, luminescence (AID 1988); format: functional, cell-based
The source made the active and inactive calls.
Measurement Type: EC50

1. CCOc1ccc2c(c1)C(C)=CC(C)(C)N2S(=O)(=O)c1ccc(NC(C)=O)cc1 ... 0.129 µM (active)
2. CCS(=O)(=O)c1ncc(Cl)c(C(=O)Nc2ccc(S(=O)(=O)N(C)c3ccccc3)cc2)n1 ... 5.71 µM (active)
3. Cc1cc(N2CCN(C)CC2)ccc1NC(=O)c1cccc(S(=O)(=O)N2CCc3ccccc3C2)c1 ... > 120 µM (not active)
4. OCC/N=C1\CCCc2c1[nH]c1ccc(Br)cc21 ... 8.41 µM (active)
5. COc1ccc(C2C(C#N)=C(N)N(c3ccccc3)C3=C2C(=O)CCC3)cc1Cn1cc([N+](=O)[O-])cn1 (stereo unspecified) ... 105 µM (active)

Pending compound:
Problem: Query (compound): `Cc1cccc(OC2CCN(Cc3nc(CC4CC4)no3)CC2)c1` ; field requested: EC50
Solution: 55.7 µM (active)

* * *

Catalogue of compounds with associated AC50
assay: Shn3 3'UTR reporter inhibitors, dose response, cell-based, Clone20 osteoblasts, firefly luciferase, cherry-picked (AID 624132); type: functional;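 note: firefly luciferase luminescence from reporter carrying the Shn3 3'UTR in osteoblasts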
The source made the active and inactive calls.

Example results:
1) O=C(Nc1cc2c3c(c1)C1CCCC1CN3CC1CCCC21)c1ccc([N+](=O)[O-])cc1 (stereo not given) ... 2.2 µM (active)
2) CC(C)(C)n1ncc2c(=O)n(Cc3cccc(Cn4cnc5c(cnn5C(C)(C)C)c4=O)c3F)cnc21 ... 1.09 µM (active)
3) CC(CCc1ccccc1)NC(=O)COC(=O)c1ccc(S(C)(=O)=O)c([N+](=O)[O-])c1 (stereo not given) ... 3.34 µM (active)
4) Cc1ccccc1C(=O)N1CCN(c2ccc(NC(=O)CSc3ccc(Cl)cc3)cc2)CC1 ... 4.23 µM (active)

Pending compound:
Problem: Query (compound): COc1ccccc1C(NC(C)=O)c1cc(Cl)c2cccnc2c1O (stereo not given) ; field requested: AC50
Solution: 2.56 µM (active)

* * *

assay: inhibitors of clade B AD8 Env fusion, dose response, cell-based, cherry-pick (AID 652062); assay type: functional;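 note: luciferase signal from cell-cell fusion driven by HIV-1 clade B AD8 Env; potency is for inhibitors of fusion seen as a drop in luminescence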
Calls of active or inactive are those of the source.
Measurement Type: AC50

Example results:
1) C[C@H](CO)N1C[C@H](C)[C@H](CN(C)Cc2ccccc2F)Oc2cc(C3=CCCC3)ccc2S1(=O)=O ... 24.4 µM (active)
2) O=S(=O)(c1ccc2c(c1)C(=NO)c1cc(S(=O)(=O)N3CCCCC3)ccc1-2)N1CCCCC1 ... 0.879 µM (active)
3) CO[C@H](CN(C)S(=O)(=O)c1ccc(Cl)cc1)[C@@H](C)CN([C@@H](C)CO)S(=O)(=O)c1cccc(Cl)c1 ... 25.1 µM (active)

Pending molecule:
Problem: Query (molecule): `C[C@@H]1CN([C@@H](C)CO)C(=O)c2cc(C3=CCCC3)cnc2O[C@@H]1CN(C)Cc1ccc(C(=O)O)cc1` ; field requested: AC50
Solution: 10.9 µM (active)
